assay: Conversion rate of salt-form prodrugs to parent compound in HEPES buffer solution; assay type: physicochemical; conditions: conversion to Compound 1, HEPES buffer pH 7.4, 37 °C, 1 h
I'd appreciate it if you could supply Release rate values for the items below.
Report as a plain number; the unit % is understood.

// fetch Release rate given entry CN(C)C[C@@H]1C(=O)O[C@H]2[C@H]1CC[C@@]1(C)C[C@]13CC[C@@](C)(O)[C@H]23 [compound 40]
6.8

Dear colleague, please send me the reported Release rate for "C[C@@]12CC[C@@H]3[C@H](OC(=O)[C@H]3CN3CCC(N4CCCCC4)CC3)[C@@H]3[C@]1(CC[C@@]3(C)O)C2" when you can.
6.8

Please look at this compound and report its Release rate: "CCOC(=O)[C@@H]1CCCN1C[C@@H]1C(=O)O[C@H]2[C@H]1CC[C@@]1(C)C[C@]13CC[C@@](C)(O)[C@H]23"
6.2

Look up and report measured Release rate for this entry: "C[C@@]12CC[C@@H]3[C@H](OC(=O)[C@H]3CN3CCC4(CCCC4)CC3)[C@@H]3[C@]1(CC[C@@]3(C)O)C2"
7.0

// fetch Release rate given entry "C[C@@]12CC[C@@H]3[C@H](OC(=O)[C@H]3CN3CCCC3)[C@@H]3[C@]1(CC[C@@]3(C)O)C2"
6.4

Identify measured Release rate corresponding to "C[C@@]12CC[C@@H]3[C@H](OC(=O)[C@H]3CN3CCC3)[C@@H]3[C@]1(CC[C@@]3(C)O)C2"
6.9

Hello, please tell me recorded Release rate for this one: CN(C)C[C@@H]1C(=O)O[C@H]2[C@H]1CC[C@@]1(C)C[C@]13CC[C@@](C)(O)[C@H]23 [compound 39]
6.6

----------
Please respond with reported Release rate for every item in the list.
assay: Conversion rate of salt-form prodrugs to parent compound in HEPES buffer solution; type: physicochemical; details: conversion to Compound 1, HEPES buffer pH 7.4, 37 °C, 8 h
Only the number, expressed in %, is required.

Entry "C[C@@]12CC[C@@H]3[C@H](OC(=O)[C@H]3CN3CCCCCCC3)[C@@H]3[C@]1(CC[C@@]3(C)O)C2" needs its Release rate filled in; supply it.
41.4

Return value of Release rate for input CN(C)C[C@@H]1C(=O)O[C@H]2[C@H]1CC[C@@]1(C)C[C@]13CC[C@@](C)(O)[C@H]23 [compound 40] , no commentary.
44.0

# return recorded Release rate for input CN(C)C[C@@H]1C(=O)O[C@H]2[C@H]1CC[C@@]1(C)C[C@]13CC[C@@](C)(O)[C@H]23 [compound 39]
42.7

Complete the entry with Release rate for C[C@@]12CC[C@@H]3[C@H](OC(=O)[C@H]3CN3CC4CCCC4C3)[C@@H]3[C@]1(CC[C@@]3(C)O)C2 (some centres unmarked)
42.2

Could you please provide reported Release rate for "C[C@@]12CC[C@@H]3[C@H](OC(=O)[C@H]3CN3CCC(N4CCCCC4)CC3)[C@@H]3[C@]1(CC[C@@]3(C)O)C2" ? Thanks!
43.8

Determine its reported Release rate: "C[C@@]12CC[C@@H]3[C@H](OC(=O)[C@H]3CN3CCC4(CCCC4)CC3)[C@@H]3[C@]1(CC[C@@]3(C)O)C2"
43.6

Quick one: give measured Release rate for CN(C)C[C@@H]1C(=O)O[C@H]2[C@H]1CC[C@@]1(C)C[C@]13CC[C@@](C)(O)[C@H]23 [compound 41]
43.4

Given the molecule "C[C@@]12CC[C@@H]3[C@H](OC(=O)[C@H]3CN3CCC(N4CCOCC4)CC3)[C@@H]3[C@]1(CC[C@@]3(C)O)C2" , write its reported Release rate.
43.6

----------
test: Conversion rate of salt-form prodrugs to parent compound in mouse plasma; format: in vitro ADME; conditions: conversion to Compound 1, mouse plasma, 37 °C, 4 h
assay.endpoint: Release rate (%)
Respond numerically; units are % and should not be typed.

Please indicate Release rate recorded for C[C@@]12CC[C@@H]3[C@H](OC(=O)[C@H]3CN3CCOCC3)[C@@H]3[C@]1(CC[C@@]3(C)O)C2 [compound 25]
25.7

Return Release rate for the following molecule: CN(C)C[C@@H]1C(=O)O[C@H]2[C@H]1CC[C@@]1(C)C[C@]13CC[C@@](C)(O)[C@H]23 [compound 41]
28.0

Provide measured Release rate value, entry: C[C@@]12CC[C@@H]3[C@H](OC(=O)[C@H]3CN3CCC4(CC3)CC4)[C@@H]3[C@]1(CC[C@@]3(C)O)C2 [compound 37]
29.3

Kindly indicate its recorded Release rate. Item: CCN1CCN(C[C@@H]2C(=O)O[C@H]3[C@H]2CC[C@@]2(C)C[C@]24CC[C@@](C)(O)[C@H]34)CC1 [compound 27]
28.4

Fill in reported Release rate for this entry: CN(C)C[C@@H]1C(=O)O[C@H]2[C@H]1CC[C@@]1(C)C[C@]13CC[C@@](C)(O)[C@H]23 [compound 21]
17.9

Output measured Release rate for this item: C[C@@]12CC[C@@H]3[C@H](OC(=O)[C@H]3CN3CCC4(CCCC4)CC3)[C@@H]3[C@]1(CC[C@@]3(C)O)C2 [compound 34]
28.6

Could you please provide reported Release rate for CCCCN(CCCC)C[C@@H]1C(=O)O[C@H]2[C@H]1CC[C@@]1(C)C[C@]13CC[C@@](C)(O)[C@H]23 [compound 30] ? Thanks!
23.8

----------
assay: Conversion rate of salt-form prodrugs to parent compound in HEPES buffer solution; type: physicochemical; conditions: conversion to Compound 1, HEPES buffer pH 7.4, 37 °C, 12 h
I'd appreciate it if you could supply Release rate values for the items below.
State the answer as a number, implicitly in %.

Give me measured Release rate, please, for this compound: "C[C@@]12CC[C@@H]3[C@H](OC(=O)[C@H]3CN3CCCC3)[C@@H]3[C@]1(CC[C@@]3(C)O)C2"
53.7

Please report the measured Release rate for "C[C@@]12CC[C@@H]3[C@H](OC(=O)[C@H]3CN3CCNCC3)[C@@H]3[C@]1(CC[C@@]3(C)O)C2"
55.6

Report measured Release rate; entry is CN(C)C[C@@H]1C(=O)O[C@H]2[C@H]1CC[C@@]1(C)C[C@]13CC[C@@](C)(O)[C@H]23 [compound 41]
53.2

Supply reported Release rate belonging to this compound: "CC(C)N(C[C@@H]1C(=O)O[C@H]2[C@H]1CC[C@@]1(C)C[C@]13CC[C@@](C)(O)[C@H]23)C(C)C"
49.5

Give the value of Release rate reported for the following: CN(C)C[C@@H]1C(=O)O[C@H]2[C@H]1CC[C@@]1(C)C[C@]13CC[C@@](C)(O)[C@H]23 [compound 42]
52.3

Identify measured Release rate associated with CN(C)C[C@@H]1C(=O)O[C@H]2[C@H]1CC[C@@]1(C)C[C@]13CC[C@@](C)(O)[C@H]23 [compound 40]
50.2

Entry "CCCCN(CCCC)C[C@@H]1C(=O)O[C@H]2[C@H]1CC[C@@]1(C)C[C@]13CC[C@@](C)(O)[C@H]23" needs its Release rate filled in; supply it.
49.8

Supply Release rate value. Item: "C[C@@]12CC[C@@H]3[C@H](OC(=O)[C@H]3CN3CCC(N4CCCCC4)CC3)[C@@H]3[C@]1(CC[C@@]3(C)O)C2"
52.5

Quote Release rate reported for "C[C@@]12CC[C@@H]3[C@H](OC(=O)[C@H]3CN3CCCCCCC3)[C@@H]3[C@]1(CC[C@@]3(C)O)C2" please.
50.7

Please look at this compound and report its Release rate: CN(C)C[C@@H]1C(=O)O[C@H]2[C@H]1CC[C@@]1(C)C[C@]13CC[C@@](C)(O)[C@H]23 [compound 20]
59.1

Query Release rate for "C[C@@]12CC[C@@H]3[C@H](OC(=O)[C@H]3CN3CCC4(CCCC4)CC3)[C@@H]3[C@]1(CC[C@@]3(C)O)C2"
54.4

Kindly indicate its recorded Release rate. Item: "C[C@@]12CC[C@@H]3[C@H](OC(=O)[C@H]3CN3CCOCC3)[C@@H]3[C@]1(CC[C@@]3(C)O)C2"
51.8

For the compound "C[C@@]12CC[C@@H]3[C@H](OC(=O)[C@H]3CN3CCC3)[C@@H]3[C@]1(CC[C@@]3(C)O)C2" , report Release rate.
51.1

Note Release rate for the compound shown: "C[C@@]12CC[C@@H]3[C@H](OC(=O)[C@H]3CN3CCCCC3)[C@@H]3[C@]1(CC[C@@]3(C)O)C2"
54.0

Indicate its recorded Release rate; the compound in question is "C[C@@]12CC[C@@H]3[C@H](OC(=O)[C@H]3CN3CCC4(CC3)CC4)[C@@H]3[C@]1(CC[C@@]3(C)O)C2"
65.8

----------
experiment: Conversion rate of salt-form prodrugs to parent compound in HEPES buffer solution; format: physicochemical; conditions: conversion to Compound 1, HEPES buffer pH 7.4, 37 °C, 12 h
assay.endpoint: Release rate
Answer format reminder: number followed by unit.

Identify the reported Release rate for the following entry. C[C@@]12CC[C@@H]3[C@H](OC(=O)[C@H]3CN3CC4CCCC4C3)[C@@H]3[C@]1(CC[C@@]3(C)O)C2 (stereo partly shown) [compound 32]
51.2%

Note Release rate for the compound shown: CCOC(=O)[C@@H]1CCCN1C[C@@H]1C(=O)O[C@H]2[C@H]1CC[C@@]1(C)C[C@]13CC[C@@](C)(O)[C@H]23 [compound 23]
52.8%

Given C[C@@]12CC[C@@H]3[C@H](OC(=O)[C@H]3CN3CCC(N4CCOCC4)CC3)[C@@H]3[C@]1(CC[C@@]3(C)O)C2 [compound 36] , respond with its Release rate.
52.4%

For the compound CN(C)C[C@@H]1C(=O)O[C@H]2[C@H]1CC[C@@]1(C)C[C@]13CC[C@@](C)(O)[C@H]23 [compound 21] , give its reported Release rate.
51.9%

Using known records, supply Release rate for CN(C)C[C@@H]1C(=O)O[C@H]2[C@H]1CC[C@@]1(C)C[C@]13CC[C@@](C)(O)[C@H]23 [compound 39]
54.3%

State its Release rate: CCCN(CCC)C[C@@H]1C(=O)O[C@H]2[C@H]1CC[C@@]1(C)C[C@]13CC[C@@](C)(O)[C@H]23 [compound 29]
49.8%

Give reported Release rate value for CCN(CC)C[C@@H]1C(=O)O[C@H]2[C@H]1CC[C@@]1(C)C[C@]13CC[C@@](C)(O)[C@H]23 [compound 28]
50.0%
